Assignment: determine reported Ki for the given compounds.
Biological target: human V1a receptor (Homo sapiens, UniProt P37288)
Construct: expressed in transfected cells; host or cells: HEK293 cells, transiently transfected; membrane preparation
Sequence (P37288 whole entry): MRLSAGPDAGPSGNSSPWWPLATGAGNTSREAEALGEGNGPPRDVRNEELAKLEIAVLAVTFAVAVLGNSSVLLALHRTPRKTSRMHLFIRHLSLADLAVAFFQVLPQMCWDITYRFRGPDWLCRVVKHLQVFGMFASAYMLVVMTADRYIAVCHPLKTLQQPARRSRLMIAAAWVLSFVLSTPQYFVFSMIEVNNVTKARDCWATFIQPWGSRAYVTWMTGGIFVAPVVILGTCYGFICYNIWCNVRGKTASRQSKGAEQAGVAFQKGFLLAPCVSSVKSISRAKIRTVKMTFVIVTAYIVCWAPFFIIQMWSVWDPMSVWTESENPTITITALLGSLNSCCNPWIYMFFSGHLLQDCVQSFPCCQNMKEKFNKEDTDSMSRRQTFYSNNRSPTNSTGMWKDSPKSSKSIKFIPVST
Experiment: human V1a receptor binding, 3H-Vasopressin SPA on membranes of transfected HEK293 cells
Conditions: displacement of 4 nM 3H-Vasopressin; HEK293 cell membranes; 1 h at room temperature; Ki from IC50 by the Cheng-Prussoff equation
Write the figure, then the unit, nothing else.

Some solved cases for reference:
- smiles_text: "O=C(c1cn(Cc2ccccc2)c2cc(Cl)ccc12)N1CCC(n2c(=O)[nH]c3ccccc32)CC1"
  Ki: "2 nM"
- smiles_text: "COc1ccc2c(C(=O)N3CCC(n4c(=O)[nH]c5ccccc54)CC3)cn(C(C)C)c2c1"
  Ki: "20 nM"

Parameters: items (list). Returns: Ki for each item.
1. O=C(Cn1cc(C(=O)N2CCC(n3c(=O)n(CC(=O)N4CCCCC4)c4ccccc43)CC2)c2ccc(Cl)cc21)N1CCCCC1
2. O=C(Cn1cc(C(=O)N2CCC(n3c(=O)[nH]c4ccccc43)CC2)c2ccc(Cl)cc21)c1cccc(F)c1
3. Cc1cc2c(C(=O)N3CCC(n4c(=O)[nH]c5ccccc54)CC3)cn(CC(=O)N(C)C)c2cc1Cl
4. CC(C)n1cc(C(=O)N2CCC(n3c(=O)[nH]c4ccccc43)CC2)c2ccc(F)cc21
5. O=C(c1cn(Cc2cccc(F)c2)c2cc(Cl)ccc12)N1CCC(n2c(=O)[nH]c3ccccc32)CC1

stdout:
1: 18 nM; 2: 22 nM; 3: 5 nM; 4: 13 nM; 5: 9 nM
